- EXPERIMENTAL TARGET: T1, reduced Complement Factor H (CFH treated with TCEP) (human, UniProt P08603 19-1231, disulfide bonds reduced with TCEP)
- T1 construct: also called reduced CFH; conformationally distinct form of CFH
- T1 sequence (P08603 19-1231 limits assumed): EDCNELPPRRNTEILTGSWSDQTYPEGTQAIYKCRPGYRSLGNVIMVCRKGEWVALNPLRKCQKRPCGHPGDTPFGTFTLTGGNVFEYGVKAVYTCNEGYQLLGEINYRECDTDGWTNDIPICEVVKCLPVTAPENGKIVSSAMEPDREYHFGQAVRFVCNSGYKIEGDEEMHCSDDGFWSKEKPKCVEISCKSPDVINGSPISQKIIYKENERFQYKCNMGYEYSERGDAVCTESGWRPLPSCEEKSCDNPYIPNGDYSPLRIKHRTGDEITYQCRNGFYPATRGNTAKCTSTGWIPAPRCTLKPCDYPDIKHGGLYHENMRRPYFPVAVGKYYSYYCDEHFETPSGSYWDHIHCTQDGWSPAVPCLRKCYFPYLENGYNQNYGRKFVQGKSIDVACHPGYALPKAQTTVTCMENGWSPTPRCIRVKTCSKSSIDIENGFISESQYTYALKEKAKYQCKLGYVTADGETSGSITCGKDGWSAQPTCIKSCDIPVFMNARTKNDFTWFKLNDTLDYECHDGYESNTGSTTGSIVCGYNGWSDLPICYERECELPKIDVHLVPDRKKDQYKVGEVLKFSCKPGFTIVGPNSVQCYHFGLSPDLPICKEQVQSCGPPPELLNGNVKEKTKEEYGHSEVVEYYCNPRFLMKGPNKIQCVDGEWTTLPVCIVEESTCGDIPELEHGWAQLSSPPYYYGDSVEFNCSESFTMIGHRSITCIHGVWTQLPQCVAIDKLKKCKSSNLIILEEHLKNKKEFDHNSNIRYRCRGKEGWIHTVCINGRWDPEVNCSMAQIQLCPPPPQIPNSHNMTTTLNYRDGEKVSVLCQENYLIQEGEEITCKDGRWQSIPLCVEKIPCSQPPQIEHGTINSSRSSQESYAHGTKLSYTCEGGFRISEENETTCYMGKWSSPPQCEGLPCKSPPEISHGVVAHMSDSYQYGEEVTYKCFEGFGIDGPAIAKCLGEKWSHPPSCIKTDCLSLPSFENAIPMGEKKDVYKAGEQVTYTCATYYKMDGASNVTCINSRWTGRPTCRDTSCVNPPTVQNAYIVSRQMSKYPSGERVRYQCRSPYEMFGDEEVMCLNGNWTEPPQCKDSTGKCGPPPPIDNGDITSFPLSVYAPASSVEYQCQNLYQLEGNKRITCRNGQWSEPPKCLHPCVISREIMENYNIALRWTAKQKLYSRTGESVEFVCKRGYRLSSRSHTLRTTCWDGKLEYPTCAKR
- EXPERIMENTAL PROTOCOL: immunoblot (Surf-Blot), CFH treated with TCEP (reduced) before electrophoresis; anti-human IgG-HRP
PROPERTY LABEL: binding result

| BINDER | RESULT |
| --- | --- |
| Ab7960/293i (antibody, V domains shown, Recombinant human mAb) VH: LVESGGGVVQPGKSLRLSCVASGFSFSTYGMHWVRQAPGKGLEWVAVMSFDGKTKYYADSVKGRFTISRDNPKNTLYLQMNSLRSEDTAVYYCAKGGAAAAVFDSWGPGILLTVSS VL: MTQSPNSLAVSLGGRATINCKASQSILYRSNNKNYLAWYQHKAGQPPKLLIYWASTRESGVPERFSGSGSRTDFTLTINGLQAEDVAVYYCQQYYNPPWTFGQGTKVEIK | binds |
| Ab7961/293i (antibody, V domains shown, Recombinant human mAb) VH: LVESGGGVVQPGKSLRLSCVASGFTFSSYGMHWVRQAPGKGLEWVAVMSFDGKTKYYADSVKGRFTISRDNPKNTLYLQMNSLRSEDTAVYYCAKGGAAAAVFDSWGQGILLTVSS VL: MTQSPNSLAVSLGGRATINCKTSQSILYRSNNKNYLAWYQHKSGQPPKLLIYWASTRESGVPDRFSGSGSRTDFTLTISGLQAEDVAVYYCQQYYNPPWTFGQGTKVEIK | binds |
| Ab7979 (antibody, V domains shown, Recombinant human mAb) VH: LVESGGGVVQPGKSLRLSCVASGFTFSTYGMHWVRQAPGKGLEWVAVMSFDGKTKYYADSVKGRFTISRDNPKNTLYLQMNSLRSEDTAVYYCAKGGAAAAVFDSWGQGILLTVSS VL: MTQSPNSLAVSLGGRATINCKTSQSILYRSNNKNYLAWYQHKPGQPPKLLIYWASTRESRVPDRFSGSGSRTDFTLTISGLQAEDVAVYYCQQYYNPPWTFGQGTKVEIK | binds |
| Ab7957/293i (antibody, V domains shown, Recombinant human mAb) VH: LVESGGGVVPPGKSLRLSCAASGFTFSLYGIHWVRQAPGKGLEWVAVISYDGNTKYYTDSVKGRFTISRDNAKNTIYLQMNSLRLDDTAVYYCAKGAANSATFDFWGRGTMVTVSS VL: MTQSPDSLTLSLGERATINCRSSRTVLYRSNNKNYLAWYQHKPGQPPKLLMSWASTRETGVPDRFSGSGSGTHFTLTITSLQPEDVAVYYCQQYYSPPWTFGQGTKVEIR | binds |
